Target: MUC20
Test: pooled miR-30 sensor sort-seq; sequence = guide strand; note: reference of the scale not given here
Settings: shRNA
Would you mind telling me the reported sensor-assay potency score (higher = more potent) of each entry?
Answer with a bare number; do not write a unit.

// returns reported sensor-assay potency score (higher = more potent) for input `TCTGTGGTCGGCCTCGTCCGGG` -1.58

// returns reported sensor-assay potency score (higher = more potent) for input `TTCACCTGCACTCACGTCTGTG` -1

// returns reported sensor-assay potency score (higher = more potent) for input `TTCGCTGAGGTTGTGATCTTGG` 0.418

// returns reported sensor-assay potency score (higher = more potent) for input `TAACTTGGTGTCTCAACAGAGA` -0.859

// returns reported sensor-assay potency score (higher = more potent) for input `TTGGTGTCTCAACAGAGAGGGC` -0.842

// returns reported sensor-assay potency score (higher = more potent) for input `TTGTGAGTGTCTTTGCCTCTTC` -0.403

// returns reported sensor-assay potency score (higher = more potent) for input `TTTACTGAAACACAGAACATGT` -0.607

// returns reported sensor-assay potency score (higher = more potent) for input `TTAATAACCTCGATGTTTGTGA` -0.0395

// returns reported sensor-assay potency score (higher = more potent) for input `TTCATCGTGGTCTTCGCTGAGG` -0.448

---

Molecular target: TMOD3
Test: pooled miR-30 sensor sort-seq; sequence = guide strand
Conditions: shRNA
attribute.measured: sensor-assay potency score (higher = more potent)

// returns reported sensor-assay potency score (higher = more potent) for input `TATAGCATTAGCTGCTCTGGTT` -0.335

// returns reported sensor-assay potency score (higher = more potent) for input `TAGGGCACATAGTCTTCCCTGT` -0.185

// returns reported sensor-assay potency score (higher = more potent) for input `TAACGCATCAATCAGTGCCAGA` -1.33

// returns reported sensor-assay potency score (higher = more potent) for input `TTACAGAACTTTGTATTCGTTA` 0.0652

// returns reported sensor-assay potency score (higher = more potent) for input `TTTTTCTTCTGTAAAAGTCTGT` 0.6

// returns reported sensor-assay potency score (higher = more potent) for input `TTCAACAAGATGAGCATCGTTT` -0.31

// returns reported sensor-assay potency score (higher = more potent) for input `TTTCATTATCTCTTAACGCATC` -0.758

// returns reported sensor-assay potency score (higher = more potent) for input `TTTTCTTCTGTAAAAGTCTGTA` -0.198

---

Would you mind telling me the reported sensor-assay potency score (higher = more potent) of each entry?
Biological target: SLC8A3
Assay: pooled miR-30 sensor sort-seq; sequence = guide strand
Conditions: shRNA
Answer with a bare number; do not write a unit.

// returns reported sensor-assay potency score (higher = more potent) for input `TTCTGCTGCATGTTTCTTCAGG` -0.419

// returns reported sensor-assay potency score (higher = more potent) for input `TGATCTTGCGAGTCTCTCCGTC` -0.247

// returns reported sensor-assay potency score (higher = more potent) for input `TTAAATACTGTGTAAAGTCGGT` -0.0881

// returns reported sensor-assay potency score (higher = more potent) for input `TTGATCTTGCGAGTCTCTCCGT` -0.572

// returns reported sensor-assay potency score (higher = more potent) for input `TATTTGTAGAAGAGCAGTCGTT` -0.77

---

Molecular target: YAP1
Assay: pooled miR-30 sensor sort-seq; sequence = guide strand
Conditions: shRNA
Would you mind telling me the reported sensor-assay potency score (higher = more potent) of each entry?
Answer with a bare number; do not write a unit.

# query: sensor-assay potency score (higher = more potent) | item `TTTGGTTGATAGTATCACCTGT` | system: YAP1 0.841

# query: sensor-assay potency score (higher = more potent) | item `TAAAGTATCTTGCTGGACGTTT` | system: YAP1 -0.0595

# query: sensor-assay potency score (higher = more potent) | item `TTAAGGAAAGGATCTGAGCTAT` | system: YAP1 -0.559

# query: sensor-assay potency score (higher = more potent) | item `TGTTGTTGTCTGATCGATGTGA` | system: YAP1 0.751

# query: sensor-assay potency score (higher = more potent) | item `ATCTTTTTCTGTATTAGCCTGA` | system: YAP1 0.428

# query: sensor-assay potency score (higher = more potent) | item `TTGAACAAACTAAATGCTGTGA` | system: YAP1 0.444

# query: sensor-assay potency score (higher = more potent) | item `TGCTGTGACATGAAGCATCTGA` | system: YAP1 0.636

# query: sensor-assay potency score (higher = more potent) | item `TGTTGAACAAACTAAATGCTGT` | system: YAP1 0.164

# query: sensor-assay potency score (higher = more potent) | item `TTGGTTGATAGTATCACCTGTA` | system: YAP1 0.588
